Biological target: N-lysine methyltransferase KMT5A (Homo sapiens, UniProt Q9NQR1)
Sequence (Q9NQR1 whole entry): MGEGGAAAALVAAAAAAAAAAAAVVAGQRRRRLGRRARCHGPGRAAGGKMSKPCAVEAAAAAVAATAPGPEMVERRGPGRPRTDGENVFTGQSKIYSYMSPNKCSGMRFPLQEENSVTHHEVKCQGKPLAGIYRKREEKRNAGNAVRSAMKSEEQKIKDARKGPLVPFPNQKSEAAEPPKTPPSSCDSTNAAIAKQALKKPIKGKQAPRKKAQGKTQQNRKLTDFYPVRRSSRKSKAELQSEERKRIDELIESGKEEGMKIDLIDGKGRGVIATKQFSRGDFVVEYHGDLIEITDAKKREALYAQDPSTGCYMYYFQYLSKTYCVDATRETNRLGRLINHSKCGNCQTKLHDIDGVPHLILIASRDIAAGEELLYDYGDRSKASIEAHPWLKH
pIC50: −log10 of the molar value.
Here's a roundup of pIC50 values tested on N-lysine methyltransferase KMT5A (Homo sapiens, UniProt Q9NQR1), taken from various published works.

Reference set, count: 4
COc1cc2nc(Nc3ccc(C(F)(F)F)cc3)nc(NCCCCCN3CCCC3)c2cc1OC	< 3.60
COc1cc2c(NC3CCN(C)CC3)nc(N3CCCN(C)CC3)nc2cc1OCCCN(C)C	< 4.40
CN1CCC[C@@H]2CN(C(=O)c3cccc(Br)c3)C[C@@H]21	4.41
CN1CCCCC12CCN(C(=O)c1cccc(Br)c1)CC2	< 3.70

Turning now to a further record.
Give the measured pIC50 of COc1cc2nc(-c3ccc(F)cc3)nc(NCCCCCN3CCCC3)c2cc1OC .
< 3.60

----------
Here's a roundup of IC50 values tested on N-lysine methyltransferase KMT5A (Homo sapiens, UniProt Q9NQR1), taken from various published works.
Target: N-lysine methyltransferase KMT5A (Homo sapiens, UniProt Q9NQR1)
Sequence (Q9NQR1 whole entry): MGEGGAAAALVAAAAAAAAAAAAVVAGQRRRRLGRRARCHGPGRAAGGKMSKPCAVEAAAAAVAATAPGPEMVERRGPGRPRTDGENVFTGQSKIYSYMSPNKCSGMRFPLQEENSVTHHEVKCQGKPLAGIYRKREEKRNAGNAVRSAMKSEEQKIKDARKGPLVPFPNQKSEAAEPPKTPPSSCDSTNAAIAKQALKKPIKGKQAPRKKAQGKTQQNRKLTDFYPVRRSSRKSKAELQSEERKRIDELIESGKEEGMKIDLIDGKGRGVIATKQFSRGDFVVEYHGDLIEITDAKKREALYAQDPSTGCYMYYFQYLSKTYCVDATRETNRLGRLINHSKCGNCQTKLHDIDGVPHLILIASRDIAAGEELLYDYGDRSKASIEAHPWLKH

Reference set, count: 8
COc1ccc(-c2nc(NCCCCCN3CCCC3)c3cc(OC)c(OC)cc3n2)cc1	> 250 µM
CN1CCN(c2cc(F)c(-c3ccc(C(=O)N(C)C)cc3)cc2Nc2ncnc(Cl)c2N)CC1	> 100 µM
COc1cc2c(NC3CCN(C)CC3)nc(N3CCCN(C)CC3)nc2cc1OCCOCCN(C)C	> 40 µM
COc1cc2c(NC3CCN(C4CCCCC4)CC3)nc(N3CCCN(C(C)C)CC3)nc2cc1OCCCN1CCCCC1	> 10 µM
COc1ccc(Nc2nc(NCCCCCN3CCCC3)c3cc(OC)c(OC)cc3n2)cc1	> 250 µM
COc1cc2nc(N3CCCC3)nc(NCC(=O)NCCN3CCNCC3)c2cc1OC	> 250 µM
Cc1ccc(/N=C2\CC(=O)c3sc(C)nc3C2=O)cc1	0.5 µM
COc1ccc(N(C)c2nc(NCCCCCN3CCCC3)c3cc(OC)c(OC)cc3n2)cc1	> 250 µM

Give the measured IC50 of C[N+]1(C)CCCCC12CCN(C(=O)c1cccc(Br)c1)CC2 .
> 200 µM

Give the measured IC50 of COc1cc2nc(N3CCCC3)nc(NCC(=O)NCCN3CCCC3)c2cc1OC .
> 250 µM
